Target: RAF proto-oncogene serine/threonine-protein kinase (Homo sapiens, UniProt P04049)
Sequence (P04049 whole entry): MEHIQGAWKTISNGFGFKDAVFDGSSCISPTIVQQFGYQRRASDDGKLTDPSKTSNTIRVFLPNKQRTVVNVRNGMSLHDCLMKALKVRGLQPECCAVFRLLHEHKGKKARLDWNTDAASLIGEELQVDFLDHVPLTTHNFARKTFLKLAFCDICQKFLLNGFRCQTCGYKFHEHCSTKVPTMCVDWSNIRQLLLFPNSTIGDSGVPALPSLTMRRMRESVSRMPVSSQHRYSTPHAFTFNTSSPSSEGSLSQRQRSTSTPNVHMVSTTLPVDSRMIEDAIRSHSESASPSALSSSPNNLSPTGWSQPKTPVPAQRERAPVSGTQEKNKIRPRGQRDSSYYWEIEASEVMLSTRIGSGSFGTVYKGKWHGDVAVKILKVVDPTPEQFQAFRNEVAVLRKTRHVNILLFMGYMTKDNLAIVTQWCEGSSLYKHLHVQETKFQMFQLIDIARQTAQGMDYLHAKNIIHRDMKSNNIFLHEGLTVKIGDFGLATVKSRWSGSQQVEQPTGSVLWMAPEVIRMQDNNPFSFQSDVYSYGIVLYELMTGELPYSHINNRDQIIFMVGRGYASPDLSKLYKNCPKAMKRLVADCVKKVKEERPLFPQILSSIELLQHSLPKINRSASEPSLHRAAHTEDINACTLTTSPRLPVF
pIC50: −log10 of the molar value.
reported metric: pIC50

Give pIC50 (RAF proto-oncogene serine/threonine-protein kinase (Homo sapiens, UniProt P04049)) of the following compound: CNC(=O)c1cc(Oc2cccc3nc(Nc4ccc(Cl)c(C(F)(F)F)c4)ccc23)ccn1
< 4.00

###

Biological target: Serine/threonine-protein kinase B-raf [V600E] (Homo sapiens, UniProt P15056, V600E)
Sequence (P15056 2-766 V600E limits assumed): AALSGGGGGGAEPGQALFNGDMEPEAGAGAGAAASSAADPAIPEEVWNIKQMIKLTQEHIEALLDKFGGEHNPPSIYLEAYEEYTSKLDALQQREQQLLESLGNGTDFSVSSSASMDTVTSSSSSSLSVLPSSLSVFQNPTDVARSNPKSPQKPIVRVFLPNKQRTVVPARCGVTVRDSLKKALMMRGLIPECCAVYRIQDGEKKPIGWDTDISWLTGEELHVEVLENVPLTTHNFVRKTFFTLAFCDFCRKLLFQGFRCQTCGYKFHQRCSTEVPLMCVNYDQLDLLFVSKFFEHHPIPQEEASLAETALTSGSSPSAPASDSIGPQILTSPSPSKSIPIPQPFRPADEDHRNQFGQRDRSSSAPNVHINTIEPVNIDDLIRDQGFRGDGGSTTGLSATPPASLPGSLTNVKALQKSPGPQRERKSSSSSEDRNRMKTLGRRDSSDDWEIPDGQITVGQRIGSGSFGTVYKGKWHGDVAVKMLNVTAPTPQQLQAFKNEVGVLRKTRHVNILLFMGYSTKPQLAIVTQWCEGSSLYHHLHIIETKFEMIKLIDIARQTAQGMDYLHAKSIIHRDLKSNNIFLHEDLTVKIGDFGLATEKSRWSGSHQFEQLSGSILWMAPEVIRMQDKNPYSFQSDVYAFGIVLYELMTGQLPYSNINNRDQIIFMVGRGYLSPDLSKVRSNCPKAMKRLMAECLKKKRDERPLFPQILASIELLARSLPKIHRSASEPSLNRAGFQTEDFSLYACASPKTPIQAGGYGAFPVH
Assay: In vitro Enzyme Assay
Conditions: pH 7.5; 25 °C
pIC50: −log10 of the molar value.
reported metric: pIC50

Return reported pIC50; argument: CNC(=O)c1cc(Oc2cccc3nc(Nc4cccc(C(C)(C)C)c4)ccc23)ccn1
< 4.00

// next record CNC(=O)c1cc(Oc2cccc3nc(Nc4ccc(Cl)c(C(F)(F)F)c4)ccc23)ccn1
< 4.00
